# experimental system: NiVB-G (Nipah virus, strain Bangladesh)
readout name: pEC50
# pEC50 is unitless: minus log10 of the molar concentration; print number only

- binder: "HENV-150 (antibody, V domains shown) VH: EVQLLESGGGLVQPGGSLRLSCAASGFTFSSSAMSWVRQTPGKGLEWVSTISGSGANTYYAASVKGRFPISRDNSKNTLFLQMNSLRAEDTAVYYCAKVSTVTFGGHVPRGSYFDYWGQGTQVTVSS VL: SYVLTQPPSVSVAPGQTARIPCGGNNIGSKSVHWYQQKPGQAPVLVVYDENDRPSGIPERFSASKSGNTATLTISRVEAGDEADYYCQVWDSRSDHYVFGTGTKVTVL"
  pEC50: 9.48

Reported pEC50 ( HENV-188 (antibody, V domains shown) VH: QVQVVESGGGVVHPGRSLRLSCAGSGFIFNNYAFHWVRQAPGGGLEWMAYISYDGRYKYYAASVRGRFTISRDDSKNTLYLQMSSLRTEDTALYYCAISDYAEPLDNWGQGTLVTVSS VL: QIVLTQSPATLSLSPGDRATLSCRASQSVSSNVAWYQQKPGQAPRLLIYNVSNRATGIPARFSGSGSGTDFTLTISSLEPEDFAVYYCHQRTNWPLTFGGGTKVEIK ) = 8.90
